biological target: Acetylcholine receptor subunit alpha (Tetronarce californica) + Acetylcholine receptor subunit beta (Tetronarce californica) + Acetylcholine receptor subunit gamma (Tetronarce californica) + Acetylcholine receptor subunit delta (Tetronarce californica) (UniProt P02710+P02712+P02714+P02718); assay: muscle-type nicotinic receptor radioligand displacement – biochemical, Torpedo californica electric organ membranes, [125I]alpha-bungarotoxin (AID 743370); settings: [125I]alpha-bungarotoxin displacement
Sequence (P02710 whole entry, looked up): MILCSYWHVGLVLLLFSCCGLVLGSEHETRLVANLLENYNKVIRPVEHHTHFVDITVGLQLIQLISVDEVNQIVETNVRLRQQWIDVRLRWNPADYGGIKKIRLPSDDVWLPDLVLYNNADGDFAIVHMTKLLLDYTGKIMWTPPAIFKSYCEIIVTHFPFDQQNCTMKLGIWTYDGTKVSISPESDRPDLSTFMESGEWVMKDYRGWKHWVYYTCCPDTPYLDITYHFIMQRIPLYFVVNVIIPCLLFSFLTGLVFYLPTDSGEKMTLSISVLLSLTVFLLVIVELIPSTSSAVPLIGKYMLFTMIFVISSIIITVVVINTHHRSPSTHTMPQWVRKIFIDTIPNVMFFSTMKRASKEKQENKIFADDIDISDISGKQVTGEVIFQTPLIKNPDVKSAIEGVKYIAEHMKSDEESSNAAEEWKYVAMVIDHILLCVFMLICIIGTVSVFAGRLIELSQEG
Sequence (P02712 whole entry, looked up): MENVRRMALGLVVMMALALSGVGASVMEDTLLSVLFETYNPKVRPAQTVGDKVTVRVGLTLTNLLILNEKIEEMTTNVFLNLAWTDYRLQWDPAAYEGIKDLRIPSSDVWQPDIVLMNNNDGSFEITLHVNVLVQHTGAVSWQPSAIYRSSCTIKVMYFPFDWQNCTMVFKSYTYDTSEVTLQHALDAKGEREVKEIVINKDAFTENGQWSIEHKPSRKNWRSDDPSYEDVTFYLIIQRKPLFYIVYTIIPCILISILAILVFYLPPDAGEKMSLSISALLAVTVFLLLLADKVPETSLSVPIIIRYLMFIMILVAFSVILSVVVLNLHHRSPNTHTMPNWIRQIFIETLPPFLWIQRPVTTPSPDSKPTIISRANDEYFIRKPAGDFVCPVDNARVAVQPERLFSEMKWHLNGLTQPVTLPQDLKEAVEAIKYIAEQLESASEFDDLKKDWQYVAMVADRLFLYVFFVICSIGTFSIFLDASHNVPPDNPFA
Sequence (P02714 whole entry, looked up): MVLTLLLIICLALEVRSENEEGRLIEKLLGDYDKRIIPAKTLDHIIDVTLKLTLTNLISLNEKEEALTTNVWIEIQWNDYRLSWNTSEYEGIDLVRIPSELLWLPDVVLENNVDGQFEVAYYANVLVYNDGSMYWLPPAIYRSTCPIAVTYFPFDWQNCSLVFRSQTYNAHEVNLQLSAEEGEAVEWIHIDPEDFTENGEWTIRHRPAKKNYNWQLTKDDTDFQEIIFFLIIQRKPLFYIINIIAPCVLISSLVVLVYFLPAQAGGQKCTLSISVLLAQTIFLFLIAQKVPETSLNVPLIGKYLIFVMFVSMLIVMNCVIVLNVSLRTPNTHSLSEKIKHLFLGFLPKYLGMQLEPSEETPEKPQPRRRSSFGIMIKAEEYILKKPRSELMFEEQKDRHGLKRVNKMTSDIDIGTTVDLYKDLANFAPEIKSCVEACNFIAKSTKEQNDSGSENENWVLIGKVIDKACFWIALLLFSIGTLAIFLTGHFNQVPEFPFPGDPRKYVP
Sequence (P02718 whole entry, looked up): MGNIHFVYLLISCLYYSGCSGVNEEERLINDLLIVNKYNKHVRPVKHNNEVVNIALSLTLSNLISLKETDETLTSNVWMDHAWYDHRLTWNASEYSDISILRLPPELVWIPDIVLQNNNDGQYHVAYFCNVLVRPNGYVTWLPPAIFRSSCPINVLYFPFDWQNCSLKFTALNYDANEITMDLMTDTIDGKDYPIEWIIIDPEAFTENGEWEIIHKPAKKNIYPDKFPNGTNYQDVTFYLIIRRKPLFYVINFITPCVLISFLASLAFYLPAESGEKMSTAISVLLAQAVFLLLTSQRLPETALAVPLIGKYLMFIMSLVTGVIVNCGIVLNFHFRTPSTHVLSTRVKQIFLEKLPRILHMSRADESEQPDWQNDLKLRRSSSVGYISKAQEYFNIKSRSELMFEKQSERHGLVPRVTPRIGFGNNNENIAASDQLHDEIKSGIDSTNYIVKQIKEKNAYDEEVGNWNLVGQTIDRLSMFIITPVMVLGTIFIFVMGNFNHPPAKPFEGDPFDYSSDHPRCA
Activity calls are given as the source filed them. No rule for the calls is given here.
Thanks in advance; please answer with one of these: active, inactive

COn1c(Br)c2c3c(cccc31)[C@H]1C[C@@H](C)CN(C)[C@@H]1C2 | active
CC/C=C/[C@@H]1CC[C@]2(C[C@H]3CC[C@H]4[C@@H](C(=O)OC(CC)CCCCCCCCCCCCC[C@@H]5O[C@](O)(CCN)[C@H](O)N(CCCN)C5=O)[C@@]5(CCC[C@H](C)O5)NC(=[N+]34)N2)O1 (stereo partly specified) | active
COc1cc2c3c(ccnc3c1OC)NC=C2 | active
COc1cc(CCN)c2c(c1OC)SSSSS2 | active
NC1=N/C(=C2/CCNC(=O)c3[nH]ccc32)C(=O)N1 | inactive

Could you please tell me the result logged for C[C@@H](N)[C@H](O)CCCCCCCC(=O)CCCCCCCCCCCCCC[C@@H](O[C@@H]1O[C@H](CO)[C@H](O)[C@H](O)[C@H]1O)[C@@H](C)N in this assay?
active
